Listed here are compounds together with their documented pKi.
TESTED_TARGET: UniProt P06401
Sequence (P06401 whole entry): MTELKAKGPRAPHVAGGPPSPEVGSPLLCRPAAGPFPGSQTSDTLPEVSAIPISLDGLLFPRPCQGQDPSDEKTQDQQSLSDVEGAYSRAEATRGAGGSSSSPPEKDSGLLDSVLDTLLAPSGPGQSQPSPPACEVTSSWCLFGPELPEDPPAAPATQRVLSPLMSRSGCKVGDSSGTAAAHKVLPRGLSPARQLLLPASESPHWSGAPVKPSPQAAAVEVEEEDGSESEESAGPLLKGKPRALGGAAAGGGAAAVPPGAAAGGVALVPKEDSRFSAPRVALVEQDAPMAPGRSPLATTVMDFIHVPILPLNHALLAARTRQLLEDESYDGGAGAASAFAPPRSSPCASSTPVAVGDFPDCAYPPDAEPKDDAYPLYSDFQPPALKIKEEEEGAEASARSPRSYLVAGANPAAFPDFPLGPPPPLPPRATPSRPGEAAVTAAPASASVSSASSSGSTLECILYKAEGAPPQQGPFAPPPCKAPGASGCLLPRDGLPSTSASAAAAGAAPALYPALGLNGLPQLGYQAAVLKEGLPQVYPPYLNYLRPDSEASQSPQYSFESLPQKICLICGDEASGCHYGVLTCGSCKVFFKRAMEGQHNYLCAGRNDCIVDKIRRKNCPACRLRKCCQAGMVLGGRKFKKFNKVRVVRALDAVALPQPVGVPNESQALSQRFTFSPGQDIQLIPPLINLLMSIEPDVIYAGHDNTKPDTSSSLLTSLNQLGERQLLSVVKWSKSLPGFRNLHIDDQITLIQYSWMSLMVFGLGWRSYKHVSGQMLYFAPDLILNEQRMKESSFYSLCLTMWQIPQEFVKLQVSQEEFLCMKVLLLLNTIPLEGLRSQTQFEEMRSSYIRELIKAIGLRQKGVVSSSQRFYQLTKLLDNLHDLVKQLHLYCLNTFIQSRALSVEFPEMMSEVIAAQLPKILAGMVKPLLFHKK
Scale: negative log10 of molar concentration, which is what pKi denotes.

Previously resolved entries follow.
                      smiles_representation  value
0  C=CC[C@@](C)(O)[C@H]1CCCC2=Cc3c(-c4ccc(F)cc4)ncn3C[C@@]21C   5.74
1  Cc1ccsc1[C@@](C)(O)[C@H]1CCCC2=Cc3c(-c4ccc(F)cc4)ncn3C[C@@]21C   6.88

query: Fill in the recorded pKi for this compound, with UniProt P06401 as test system: C[C@]12Cn3cnc(-c4ccc(F)cc4)c3C=C1CCC[C@@H]2[C@](C)(O)c1ccc(Cl)s1
result: 6.39

---

TESTED_TARGET: Glucocorticoid receptor (Homo sapiens)
Sequence (P04150 whole entry): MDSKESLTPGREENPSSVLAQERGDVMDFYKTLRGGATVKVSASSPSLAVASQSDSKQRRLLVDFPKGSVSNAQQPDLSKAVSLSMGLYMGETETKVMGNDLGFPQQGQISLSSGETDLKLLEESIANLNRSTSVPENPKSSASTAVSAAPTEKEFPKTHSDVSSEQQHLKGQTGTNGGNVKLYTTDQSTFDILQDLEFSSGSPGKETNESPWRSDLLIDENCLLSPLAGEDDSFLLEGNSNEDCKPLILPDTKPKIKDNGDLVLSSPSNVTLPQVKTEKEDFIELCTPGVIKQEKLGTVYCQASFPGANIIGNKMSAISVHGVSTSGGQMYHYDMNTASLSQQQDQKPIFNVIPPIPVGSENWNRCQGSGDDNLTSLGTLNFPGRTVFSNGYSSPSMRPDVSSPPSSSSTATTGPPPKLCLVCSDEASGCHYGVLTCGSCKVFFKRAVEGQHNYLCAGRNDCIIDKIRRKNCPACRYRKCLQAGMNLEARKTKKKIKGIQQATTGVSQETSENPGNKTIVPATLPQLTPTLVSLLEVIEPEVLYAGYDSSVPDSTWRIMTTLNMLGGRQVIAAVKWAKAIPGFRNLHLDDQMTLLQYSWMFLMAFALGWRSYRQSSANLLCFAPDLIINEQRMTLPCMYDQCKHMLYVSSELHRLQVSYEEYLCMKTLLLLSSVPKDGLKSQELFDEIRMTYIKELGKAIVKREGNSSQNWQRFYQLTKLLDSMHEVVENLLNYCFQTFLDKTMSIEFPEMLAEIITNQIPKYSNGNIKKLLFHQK
TEST: Transrepression activity at glucocorticoid receptor expressed in human A549 cells assessed as inhibition of IL-1-beta-induced NF-kappaB dependent E-selection promoter activation after 6 hrs by luciferase reporter gene based ELAM assay
Assay type: cell-based
Cut-off 90 nM on EC50: below means label 1, at or above means label 0.

Please review the entries below; each comes with its answer.
>>> print(df.to_string())
                                   molecule  class_label
0  CO[C@](C)(c1cccs1)[C@H]1CCCC2=Cc3c(-c4ccc(F)cc4)ncn3C[C@@]21C      label 0
1  C[C@]12Cn3cnc(-c4ccc(F)cc4)c3C=C1CCC[C@@H]2[C@H](O)c1ccc(F)cc1 (stereo in doubt; 19)      label 0
2  C[C@]12Cn3cnc(-c4ccc(F)cc4)c3C=C1CCC[C@@H]2[C@](C)(O)c1ccc(F)cc1      label 1

query: Given C=CCC(O)C1CCCC2=Cc3c(-c4ccc(F)cc4)ncn3CC21C (single isomer, unassigned; diastereomer 1) , is recorded EC50 strictly lower than 90 nM?
result: label 0

query: Given C[C@]12Cn3cnc(-c4ccc(F)cc4)c3C=C1CCC[C@@H]2[C@](C)(O)c1ccc(Cl)cc1 , is recorded EC50 strictly lower than 90 nM?
result: label 1

query: Given C[C@]12Cn3cnc(-c4ccc(F)cc4)c3C=C1CCC[C@@H]2[C@](C)(O)c1cccs1 , is recorded EC50 strictly lower than 90 nM?
result: label 1

query: Given C[C@]12Cn3cnc(-c4ccc(F)cc4)c3C=C1CCC[C@@H]2[C@](C)(O)c1ccsc1 , is recorded EC50 strictly lower than 90 nM?
result: label 1

query: Given C[C@]12Cn3cnc(-c4ccc(F)cc4)c3C=C1CCC[C@@H]2[C@](C)(O)c1ccc(Cl)s1 , is recorded EC50 strictly lower than 90 nM?
result: label 1

query: Given C[C@]12Cn3cnc(-c4ccc(F)cc4)c3C=C1CCC[C@@H]2[C@](C)(O)Cc1ccc(F)cc1 , is recorded EC50 strictly lower than 90 nM?
result: label 0

Values were extracted from ChEMBL document CHEMBL1156812.
